Cited source for all entries: patent US20250296909A1

# System: spleen T cells
# protocol.description: T cell proliferation inhibition (CFSE, FACS), CD3/CD28-activated spleen T cells
# Type: cell-based, C57BL/6 mice
# test.settings: Table 2; 50 μM; 3 days; relative to CD3/CD28+DMSO
Kindly supply the reported Proliferation inhibition rate (%) values for the records listed here.
Response body: numeric value in %, unit text excluded.

Please supply the value of reported Proliferation inhibition rate (%) for the item CCCCCCCCCCCCNC(=O)c1ccccc1C(F)(F)F [Compound 38]
85

Identify the reported Proliferation inhibition rate (%) for the following entry. CCCCCCCCCCCCNC(=O)CNC(=O)c1ccccc1Cl [Compound 56]
62

# return recorded Proliferation inhibition rate (%) for input CCCCCCCCCCCCNC(=O)c1cccnc1C(F)(F)F [Compound 77]
66

Please report Proliferation inhibition rate (%) for the following molecule: CCCCCCCCCCCCNS(=O)(=O)c1ccccc1F [Compound 45]
97

Consider the molecule CCCCCCCCCCCCNS(=O)(=O)c1c(Cl)cccc1Cl [Compound 40] and give its recorded Proliferation inhibition rate (%).
97

Provide one value: measured Proliferation inhibition rate (%) of CCCCCCCCCCCCNS(=O)(=O)c1ccccc1N [Compound 46]
93

Hello, please tell me recorded Proliferation inhibition rate (%) for this one: CCCCCCCCCCCCNC(=O)c1ccccc1[N+](=O)[O-] [Compound 50]
97

Return reported Proliferation inhibition rate (%). Input molecule: CCCCCCCCCCCCNC(=O)c1cccnc1S [Compound 80]
100

Could you please provide reported Proliferation inhibition rate (%) for CCCCCCCCCCCCNS(=O)(=O)c1ccccc1Br [Compound 35] ? Thanks!
93

Supply reported Proliferation inhibition rate (%) belonging to this molecule: CCCCCCCCCCCCNC(=O)c1cccnc1Br [Compound 76]
65

Write down Proliferation inhibition rate (%) measured for item CCCCCCCCCCCCNS(=O)(=O)c1c(C)cc(C)cc1C [Compound 41]
100

In one line, give reported Proliferation inhibition rate (%) of the entry CCCCCCCCCCCCNC(=O)c1cccnc1Oc1ccc(Cl)cc1 [Compound 26] .
100
